Known EC50 of a selection of compounds
system name: Rat mGlu2 (Rattus norvegicus)
Sequence (P31421 19-872): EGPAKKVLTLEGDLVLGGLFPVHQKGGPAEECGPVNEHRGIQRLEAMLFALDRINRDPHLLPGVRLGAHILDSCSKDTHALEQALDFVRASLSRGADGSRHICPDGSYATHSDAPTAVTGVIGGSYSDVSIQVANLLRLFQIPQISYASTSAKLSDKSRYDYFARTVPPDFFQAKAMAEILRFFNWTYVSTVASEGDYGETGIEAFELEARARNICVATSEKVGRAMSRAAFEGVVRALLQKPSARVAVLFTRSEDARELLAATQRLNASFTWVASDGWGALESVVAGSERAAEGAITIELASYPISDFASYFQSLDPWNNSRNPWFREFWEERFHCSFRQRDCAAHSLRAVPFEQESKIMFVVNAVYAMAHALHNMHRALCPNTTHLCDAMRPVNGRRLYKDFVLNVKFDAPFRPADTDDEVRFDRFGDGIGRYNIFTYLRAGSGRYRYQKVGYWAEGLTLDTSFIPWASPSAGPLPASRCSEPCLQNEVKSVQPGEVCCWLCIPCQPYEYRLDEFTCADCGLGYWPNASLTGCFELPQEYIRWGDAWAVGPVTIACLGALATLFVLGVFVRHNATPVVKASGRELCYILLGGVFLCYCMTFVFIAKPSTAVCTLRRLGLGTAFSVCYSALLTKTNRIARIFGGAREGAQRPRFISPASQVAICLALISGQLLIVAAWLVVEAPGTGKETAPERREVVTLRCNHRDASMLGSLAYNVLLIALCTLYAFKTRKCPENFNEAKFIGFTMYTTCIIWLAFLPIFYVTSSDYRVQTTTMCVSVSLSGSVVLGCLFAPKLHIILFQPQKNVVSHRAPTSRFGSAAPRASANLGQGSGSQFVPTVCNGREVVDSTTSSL
protocol description: mGlu receptor in vitro assay, thallium flux through GIRK channels, rat mGlu2
condition: PAM potency with EC20 glutamate

[2H]C([2H])(CCCC([2H])([2H])Oc1ccc(C(=O)CCC)c(O)c1C)Oc1ccc(C(=O)O)c(Cl)c1: 0.019 µM
Cc1c(OCCCCCOc2ccc(C(=O)CC(C)(C)C)c(O)c2C)cccc1C(=O)O: 0.355 µM
CCCC(=O)c1ccc(OCC#CCOc2ccc(C(=O)O)c(Cl)c2)c(C)c1O: 0.033 µM
Cc1c(OCc2cnc(-c3cccc(C(=O)NS(C)(=O)=O)c3)cn2)ccc(C(=O)CC(C)(C)C)c1O: > 10 µM

Field EC50 (entry Cc1c(OCc2cnc(-c3cccc(NC(=O)NS(C)(=O)=O)c3)cn2)ccc(C(=O)CC(C)(C)C)c1O ) reads 2.38 µM

For COc1cc(F)c(C(=O)O)cc1-c1cccc(COc2ccc(C(=O)CC(C)(C)C)c(O)c2C)c1 the compound record lists EC50 as 0.11 µM

// sample Cc1c(SCCCCOc2cccc(C(=O)O)c2)ccc(C(=O)CC(C)(C)C)c1O , its EC50 was 0.549 µM

COc1ccc(C(=O)O)cc1OCCCCOc1ccc(C(=O)CC(C)(C)C)c(O)c1 yielded EC50 of 0.403 µM

# compound Cc1c(SCc2cccc(-c3cccc(C(=O)O)c3)c2)ccc(C(=O)CC(C)(C)C)c1O ; its EC50 = 0.337 µM

Value of EC50 reported for the compound COc1ccc(C(=O)O)cc1OCCNCCOc1ccc(C(=O)CC(C)(C)C)c(O)c1C is 2.16 µM

Measured EC50 of Cc1c(OCc2cnc(-c3cccc(S(N)(=O)=O)c3)cn2)ccc(C(=O)CC(C)(C)C)c1O : > 30 µM

Entry CCCC(=O)c1ccc(OCCS(=O)(=O)CCOc2ccc(C(=O)O)c(Cl)c2)c(C)c1O ; EC50 = > 10 µM

The measurements presented in this section are drawn from patent US20250179000A1.
